Value source: the nanobody polyreactivity screen of Harvey et al. (2022)

Assay Procedure: yeast display, Sf9 membrane polyspecificity reagent, FACS + sequencing; frameworks hold sequencing errors
Measurement Kind: polyreactivity (PSR sort gate)

Worked set:
QVQLVESGGGLVQAGGSLRLSCAASGSIFPYYAMGWYRQAPGQEREFVASISSVTSTYADSVKGRFTISRDNAKNTVYLQMNSQKPEDPAVYYCAADRAYSWYSVSRYNYWGQGTQVTVSS | low polyreactivity
QVQLVESGGGLVQAGGSLRLICAASGFTFSTNAMGWYRQAPGKERELVAAITKSGGRTYYADSVKGRFTISRDNAKNTVYLQMNSLTPEDTAVYYCAAEVDRKGFYWYYWGQGTQVTVSS | high polyreactivity
QVQLVESGGGLVQAGGSLRLSCAASGFTFRYYAMGWYRQAPGKERELVAAISAGGGSTYYADSVKGRFTISRDNAKNTVYLQMNSLKPEDTAGYYCAAAGARPGYDYWGQGTQVTVSS | high polyreactivity
QVQLVESGGGLVQAGGSLRLSCAASGSNFSDYAMGWYRQAPGKEREFVATITWSGTSTYYADSVKGRFTISRDNAKNTVYLQMNSLKAEDTAVYYCAAELLFWLGLVPGTIFDEFDYWGQGTQVTVSS | low polyreactivity
QVQLVESGGGLVQAGGSLRLSCAASGRTFIENAMGWYRQAPGKERELVAAISRGGSTYYADSVKGRFTMSRDNAKNTVYLQMNSLKPEDTAVYYCAADYFYLFHYSSQKYSRYEYWGQGTQVTVSS | low polyreactivity
QVQLVESGGGLVQAGGSLRLSCAASGLFFFYYAMGWYRQAPGKERELDAAIRTNYADSVKGRFTISRDNAKNTVYLQMNSLKPEDTAVYYCAAESSQTPTSAFDYWGQGTQVTVSS | low polyreactivity

For this sequence ( QVQLVESGGGIVQAGGSLRLSCAASGSTFRYYARGWSRQAPGKERELVATITCNAAGTYYADSVKGRFTISRDNAKNTVYLQMNSLKPEDTAVYYCAAAPWEWYHYGYYYWGQGTQVTVSS ), measured polyreactivity (PSR sort gate) is low polyreactivity

For this sequence ( QVLLVESGGGLVQAGGSLRLSCAASGAIFRGYVMGWYSQAPGKERELVAAISYSGGATYYADSVKGRFTLSRDNAKNTVYVQMNSLKPEDTAVYYCAAYRYRYPYRLYDYWGQGTQGTVSS ), measured polyreactivity (PSR sort gate) is high polyreactivity

For this sequence ( QVQLVESGGGLVQAGGRLRLSCAASGSTFRLYAMGRYRQAPGKERELVAAIRGSGGSTYYADSVKGRFTISRDNAKNTVYLQMNSMKPEDNAVYYCAARVVVARRSYVGYGYWGQGTQVTVSS ), measured polyreactivity (PSR sort gate) is high polyreactivity

For this sequence ( QVQLVESGGGLVQAGGSLRLSCAAYGRTFDTYAMGWYLQAPGKERELVAAISFSGASTYYADSVKGRFTISRDNAKNTVYLQLNSLKPEDTAVYYCNARYGYRVPLTPIGARFNYWGQGTQETVSS ), measured polyreactivity (PSR sort gate) is high polyreactivity

For this sequence ( QDQLVESRGGLVQAGGSLRLSCAASGFTFYYYAMGWYRQAPGKERELVAAISSGGSTYYADSVKGRFTISRDNAKNTVYLQMNSLKPEDTAVYYCARLYRVGRYLFDVDSWGQGTQVTVSS ), measured polyreactivity (PSR sort gate) is high polyreactivity

###

Assay Procedure: yeast display, Sf9 membrane polyspecificity reagent, FACS + sequencing; frameworks hold sequencing errors
Measurement Kind: polyreactivity (PSR sort gate)

QVQLVESGGGLVQAGGSLRLSCAASGSIFDTNAMRWYRQAPGKERELVAAISFSGVRTYYEDSVKGRFTISRYNAKNTVSLQMYSLKPEDTAVYYCAAESGKYLESRYRYYTRYYYWGQGTEVTVSS | high polyreactivity
QVQLVESGRGLVHAGGSLRLSCAASGSIFSPYAMGWYRPAPGKEREFVASITFNGGSTYYADSVKGRFTISRDNAKNTVYLQMTSLKPEDTAVYYCAATYWYDTYWLMDYWGQGTQVTVSS | high polyreactivity
QVQLVESGGGLVQAGGSLRLSCAASGRIFYSNAMGWYRPAPGKERELVAGITISGGSTYYADSVKGRFTISRDYAKNTVSLQMNSLKPEDTAVYYCNARYLRRGDYGGQGTQVTVSS | low polyreactivity
QVQLLESGGGLVQAGGSLRLSCPASGRIFGSYAMRSYRKAPGKERDFVAAISRTGGSTYYADSVKGRFTISRDNAKNTVYLQFTSLKPEDTAVYYCAASYRWRFVRGYYWGQGTQVNVSS | high polyreactivity
QVQLVESGGGLVQAGGSLRLSCAASGSIFGFNAMGWYRQAPGKERELVAAINGGGTTYYADSVKGRFTISRDNAKNTVYLQMNSLIPEDTAVYYCAATPNGYYYLGYDYWGQGTQVTVSS | low polyreactivity
QVQLVESGGGLVQAGGSLRLSCAASGSTLYGYAMGWYRQAPGKVRELVAAISSRAVRTYYADSVKGRFTISRDNAKNTVYLHMNSLKPEDTAVYYCAAKRSYAYEYWGQGTQVTVSS | high polyreactivity

For this sequence ( QVQLVESGGGLVQAGGSLRLSCAASGSTFDPNAMGWYRQAPRKEREFVAAIRVSGDNTYYADSVKGRFTISRDNAKNTVYLLMNSLKPEDTAVYYCAATGTVLGSVDYWGQGTQVTVSS ), measured polyreactivity (PSR sort gate) is low polyreactivity

For this sequence ( QVQLVESGGGLVQEGGSLRLSCAASGTFYRYAMGWYRQAPGKERELVAAISRSGGSTYYADSVKGRFTISRDNAKNTVYLQMNSLKPEDTAVYYCAAYSRSFYLASLYDYWGQGTQVTVSS ), measured polyreactivity (PSR sort gate) is high polyreactivity

For this sequence ( QVQLVESGGGLVQAGGSLRLSCAASGRTFYRNAMGWYRQAPGKERELVAAISQRGGRTYYADSVKGRFTISRDNAKNSVYLQMNSLKPEDTAVYYCAASPIYPVYRRHGYWGQGTQVTVSS ), measured polyreactivity (PSR sort gate) is high polyreactivity

For this sequence ( QVQLVESGGGLVQAGGTLRLSCAASGSTFLINAMGWYRQAPGKERELVAAISWGGGSTYYADSVKGRFTISRDNGKNSVDLQMNRLTPEDTAVYYCAARYWYRVDYWGQGTQVTVSS ), measured polyreactivity (PSR sort gate) is high polyreactivity

For this sequence ( QVQLVESGGGLVQAGGSLRLSCAASGSIFVNYAMGWYRQAPGKERELVAAITDGGRTYYADSVKGRFTISRDNAKNTVYLQMNSLKPEDTAVYYCAVDGIRYWGSRDESGYDYWGQGTQVTVSS ), measured polyreactivity (PSR sort gate) is low polyreactivity

###

Assay Procedure: yeast display, Sf9 membrane polyspecificity reagent, FACS + sequencing; frameworks hold sequencing errors
Measurement Kind: polyreactivity (PSR sort gate)

QVQLQESGGGLVQAGGSLRLSCAASGSIFDTPTMGWYRQAPGKERELVASIAYDDNTYYADSVKGRFTISRYNAKHTVYLQMNSLKPGDTAVYYCAVTDRIYYYFVYWGQGTRVTVSS | high polyreactivity
QVQLVESGGGLVQAGGSLRLSCAASGRIFGKYAMGWYRQAPGKERELVAAIRITGGSTYYADSVKGRFTISRDNAKNTVYLQMNSLKPEDTAVYYCAAVYKYADVIYDYWGQGTQVTVSS | high polyreactivity
QVQLVESGGGLVQAGGSLRLSCAASGSTSGSYAMGWYRQAPGKERELVATISWSGGRTYYADSVKGRFTISRDNAKNTVYLQMNSLKPEDTAVYYCAARRYAFRYYGYDYWGQGTQVTVSS | high polyreactivity
QVQLVESGGGLVQAGGSLRLSCAASGRIFSSNAMGWYRQAPGKEWELVAAITRGGSTNYADSVKGRFTISRDNAKNTDYLQMNSLKPEDTAVYYCNVDYYVFNHQGHLNYDYWGQGTQVTVSS | high polyreactivity
QVQLVESGGGLVQAGGSLRLSCAASGFNFSSYAMGWSRQAPGKERELVAAISGSGGTTYYADSVKGRFTISRDNAKNTVYLQMNSQKPEDTAVYYCATRLGLVITKYGYDYWGQGTQVTVSS | high polyreactivity

Then this sequence:
For this sequence ( QVQLVESGGGLVQAGGSLRLSCAASGSTFWSYTMGWYRPAPGKERELVARIRTTGGSTYADSVKGRFTISRDNAKNTVYLQMNSLKPEDTAVYDCAKEGWLRYYPWYGGDYWGQGTLVTVSS ), measured polyreactivity (PSR sort gate) is high polyreactivity

###

Assay Procedure: yeast display, Sf9 membrane polyspecificity reagent, FACS + sequencing; frameworks hold sequencing errors
Measurement Kind: polyreactivity (PSR sort gate)

Worked set:
QVQLVESGGGLVQAGGSLRLSCAASGRTFGCYAMGWYRQAPGKERELVASITQRGGRTYYADSVKGRFTISRDNAKNTVYLQMNSLKPEDTAVYYCAAKTSPGMYYWVQGTQVTVSS | high polyreactivity
QVQLVESGGGLVQAGGSLRLSCAASGSIFGRNAMGWYRQAPGKERELVAAITWRTGSTFYADSVKGRFTISRDNAKNTVYLQMNCLKPEDTAVYYCNAAGPAYSYYHWLWGDYNSWRQGTQVTVSS | low polyreactivity
QVQLVESGGGLVQAGGSLRLSCAASGSTLRGNAMGWYRQAPGKERELVAAISWSGGSTYYADSVKGRFTISRDNAKNTVYLQMNSLKPEDTAVYYRATASPSTRYGRLGDYWGQGTQVTVSS | low polyreactivity
QVQLVESGGGLVQAGGSLRLSSDASGRILAGYAMGWYRQAPGKERELVAAITRGGTTYYADYVKGRFTISRDNAKNTVYLQINSMKPEDTAVVYTVSSAQYDFWGQGTQVTVSS | low polyreactivity
QVQLVESGGGLVQAGGSIRLRCAASGITFYYYAMGWYRQAPAKERELVAAISRSGITYYADSVKGRFTISRDNAKNSVYLQMNSLKPEDTAVYYGAAGRRFDQSMYYGGQGTQVTVSS | high polyreactivity
QVQLVESGGGLVQAGGSLRLSCAASGIYYNAMGWYRHAPGKERELVAAITTGDRTNYADSVKGRFTISRDNAKNTVYLQMNSLKPEDTAVYYCNAVVERLSSTARDFAYDYWGQGTQVTVSS | low polyreactivity
QVQLVESGGRLVQAGGRLRLICAASGFIFSDYAMGWYRQAPGKERELVAAISWRGGSTYYADSVKGRFTISRDKEKNSVYLQMNSLKPEDTAVYYCAADYGAYDMDYWGQGTQVTVSS | high polyreactivity
QVQLVESGGGLVQAGGSLRLSCAASGFIFQPYAMGWYRQAPRKERELVAAITSRGGRTYYADSVKGRFTISRDNAKNTVYLQMNSLKPEDTAVYYCNGDIYASEYYYWGQGTQVTVSS | low polyreactivity

Then this sequence:
For this sequence ( QVQLVESGGGLVQAGGSLRLSCAASGYTFRHYVMGWYRQAPGKERELVAAITYSGGSTYYADSVKGRFTISRDNAKNTVYLQMNSLKPEDTAVYYCAARRRRSDPYDFWGQGTQVTVSS ), measured polyreactivity (PSR sort gate) is high polyreactivity
